assayed-target: AfChiB1 (Aspergillus fumigatus)
procedure-summary: biochemical
Format: biochemical
condition-info: Table 6, N7 compounds, against AfChiB; read-out: IC50
pIC50: −log10 of the molar value.
measured-endpoint: pIC50

Cn1cnc2c1c(=O)n(CCCn1c(=O)c3c(ncn3CCCCC(=O)O)n(C)c1=O)c(=O)n2C | 6.44
Cn1cnc2c1c(=O)n(CCCn1c(=O)c3c(ncn3CC=CC(=O)O)n(C)c1=O)c(=O)n2C | 6.38

(A) COC(=O)C=CCn1cnc2c1c(=O)n(CCCn1c(=O)c3c(ncn3C)n(C)c1=O)c(=O)n2C
(B) COC(=O)CCCCn1cnc2c1c(=O)n(CCCn1c(=O)c3c(ncn3C)n(C)c1=O)c(=O)n2C
Rank A against B by their pIC50 values and give the higher one. Output the label that corresponds to your choice.
A
(A: 6.80, B: 6.52)

Source listed as patent US8207175B2.
